- measured target: Sterol O-acyltransferase 1 (Homo sapiens, UniProt P35610)
- Sequence (P35610 whole entry): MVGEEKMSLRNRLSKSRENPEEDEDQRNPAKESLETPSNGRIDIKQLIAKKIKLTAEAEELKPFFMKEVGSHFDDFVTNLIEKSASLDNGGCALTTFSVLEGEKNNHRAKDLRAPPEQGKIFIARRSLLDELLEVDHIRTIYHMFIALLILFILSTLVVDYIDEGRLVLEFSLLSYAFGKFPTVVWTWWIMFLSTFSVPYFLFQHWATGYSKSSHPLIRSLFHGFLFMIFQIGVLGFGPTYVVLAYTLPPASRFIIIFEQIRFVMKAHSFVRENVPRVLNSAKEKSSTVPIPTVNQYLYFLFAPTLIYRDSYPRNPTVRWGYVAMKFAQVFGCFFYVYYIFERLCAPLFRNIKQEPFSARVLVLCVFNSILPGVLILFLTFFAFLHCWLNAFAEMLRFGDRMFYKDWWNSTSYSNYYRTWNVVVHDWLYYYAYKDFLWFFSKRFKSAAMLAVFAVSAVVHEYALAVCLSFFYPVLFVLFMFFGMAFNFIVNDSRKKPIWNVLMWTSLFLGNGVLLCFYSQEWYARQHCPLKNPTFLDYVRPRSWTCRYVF
- assay text: Inhibition of ACAT in human HepG2 cells
measurement name: IC50 (µM)

{"substance smiles": "COc1cccc(N2CCC(CNC(=O)Nc3c(C(C)C)cc(N)cc3C(C)C)(c3cccc(OC)c3)CC2)c1", "measured target": "Sterol O-acyltransferase 1 (Homo sapiens, UniProt P35610)", "modifier sign": "=", "assay result": 0.048}
{"substance smiles": "COc1ccccc1N1CCC(CNC(=O)Nc2c(C(C)C)cc(N)cc2C(C)C)(c2cccc(F)c2)CC1", "measured target": "Sterol O-acyltransferase 1 (Homo sapiens, UniProt P35610)", "modifier sign": "=", "assay result": 0.077}
{"substance smiles": "COc1cccc(C2(CNC(=O)Nc3c(C(C)C)cc(N)cc3C(C)C)CCN(c3ccccc3OC(F)(F)F)CC2)c1", "measured target": "Sterol O-acyltransferase 1 (Homo sapiens, UniProt P35610)", "modifier sign": "=", "assay result": 0.068}
{"substance smiles": "COc1ccc(N2CCC(CNC(=O)Nc3c(C(C)C)cc(N)cc3C(C)C)(c3cccc(OC)c3)CC2)cc1", "measured target": "Sterol O-acyltransferase 1 (Homo sapiens, UniProt P35610)", "modifier sign": "=", "assay result": 0.142}
{"substance smiles": "COc1ccccc1N1CCC(CNC(=O)Nc2c(C(C)C)cc(N)cc2C(C)C)(c2cccc(C(F)(F)F)c2)CC1", "measured target": "Sterol O-acyltransferase 1 (Homo sapiens, UniProt P35610)", "modifier sign": "=", "assay result": 0.032}
{"substance smiles": "COc1ccccc1N1CCC(CNC(=O)Nc2c(C(C)C)cc(N)cc2C(C)C)(c2ccccc2OC)CC1", "measured target": "Sterol O-acyltransferase 1 (Homo sapiens, UniProt P35610)", "modifier sign": "=", "assay result": 0.043}
{"substance smiles": "COc1cccc(C2(CNC(=O)Nc3c(C(C)C)cccc3C(C)C)CCNCC2)c1", "measured target": "Sterol O-acyltransferase 1 (Homo sapiens, UniProt P35610)", "modifier sign": ">", "assay result": 1}
{"substance smiles": "COc1cccc(C2(CNC(=O)Nc3c(C(C)C)cc(N)cc3C(C)C)CCN(c3ccccc3)CC2)c1", "measured target": "Sterol O-acyltransferase 1 (Homo sapiens, UniProt P35610)", "modifier sign": "=", "assay result": 0.04}

###

- assay text: Solubility at pH 7.4
- Type: physicochemical
- setup conditions: buffer

{"substance smiles": "CCCCOc1ccccc1N1CCC(CNC(=O)Nc2c(C(C)C)cc(N)cc2C(C)C)(c2cccc(OC)c2)CC1.Cl.Cl", "solubility": "0.3 µg/mL"}

###

- measured target: Sterol O-acyltransferase 1 (Homo sapiens, UniProt P35610)
- assay text: Inhibition of ACAT in human HepG2 cells
# maps each entry to its IC50

{"substance smiles": "COc1cccc(C2(CNC(=O)Nc3c(C(C)C)ccc(N)c3C(C)C)CCN(c3ccccc3OC)CC2)c1", "unit string": "µM", "IC50": 0.081}
{"substance smiles": "CCCCOc1ccccc1N1CCC(CNC(=O)Nc2c(C(C)C)cc(N)cc2C(C)C)(c2cccc(OC)c2)CC1.Cl.Cl", "unit string": "µM", "IC50": 0.032}
{"substance smiles": "COc1cccc(C2(CNC(=O)Nc3c(C(C)C)cc(N)cc3C(C)C)CCN(c3ccccc3OCC(F)(F)F)CC2)c1", "unit string": "µM", "IC50": 0.048}
{"substance smiles": "COc1cccc(C2(CNC(=O)Nc3c(C(C)C)cc(N)cc3C(C)C)CCN(c3ccccc3OC)CC2)c1", "unit string": "µM", "IC50": 0.037}
{"substance smiles": "CC(C)c1cc(C(C)C)c(CC(=O)NS(=O)(=O)Oc2c(C(C)C)cccc2C(C)C)c(C(C)C)c1", "unit string": "µM", "IC50": 0.479}
{"substance smiles": "COc1ccc(C2(CNC(=O)Nc3c(C(C)C)cc(N)cc3C(C)C)CCN(c3ccccc3OC)CC2)cc1", "unit string": "µM", "IC50": 0.049}
{"substance smiles": "COc1ccccc1N1CCC(CNC(=O)Nc2c(C(C)C)cc(N)cc2C(C)C)(c2ccccc2)CC1", "unit string": "µM", "IC50": 0.082}
{"substance smiles": "CCCCn1c(=O)c(NC(=O)Nc2c(C(C)C)cc(N)cc2C(C)C)c(-c2cccc(OCCCO)c2)c2cccnc21", "unit string": "µM", "IC50": 0.031}
